Values compiled from ChEMBL document CHEMBL6134898.

method notes: Apparent permeability across apical to basal side in human Caco-2 cells at 1 uM incubated for 120 mins by LC-MS/MS analysis
Assay type: ADME, cell-based
I'd appreciate it if you could supply Papp A→B at 2 h, 1 µM values for the items below.

Incoming: Entry NC(=O)c1ncc(N2CCCCC2)nc1Nc1ccc(C2CCN(C[C@@H]3CCN(c4ccc5c(c4)C(=O)N(C4CCC(=O)NC4=O)C5=O)C3)CC2)cc1 (stereo partly drawn) has what Papp A→B at 2 h, 1 µM?
Outgoing: < 1 nm/s

Incoming: Now the compound COc1cc(O[C@H]2C(C)(C)[C@H](NC(=O)c3ccc(N4CCC(CN5CCN(c6ccc(C(=O)N[C@H]7CCC(=O)NC7=O)c(F)c6)CC5)CC4)cc3)C2(C)C)ccc1C#N [LUXDEGALUTAMIDE]
Outgoing: < 1 nm/s

Incoming: Now the compound `CN1CCN([C@@H]2CCCN(c3cnc(C(N)=O)c(Nc4ccc(C5CCN(CC6CCN(c7ccc(C(=O)N[C@H]8CCC(=O)NC8=O)nc7)CC6)CC5)cc4)n3)C2)C1=O`
Outgoing: 28 nm/s
